Endpoint: pKi. System: serotonin 2 receptor (Rattus norvegicus). Items follow.
Where a name gives a salt, the structure may show the parent alone.
In simple prose, pKi is minus the logarithm base ten of a concentration in moles per litre.

// lookup pKi | system=serotonin 2 receptor (Rattus norvegicus) | key= CCN1CCN(c2nc(-c3ccc(CC(C)O)cc3)cc3ccsc23)CC1 (centres unmarked) [Example 436, dihydrochloride]
7.58

// lookup pKi | system=serotonin 2 receptor (Rattus norvegicus) | key= CCN1CCN(c2nc(-c3ccc(CCC(C)OC)nc3)cc3ccccc23)CC1 (centres unmarked) [Example 144, Oxalate]
7.91

// lookup pKi | system=serotonin 2 receptor (Rattus norvegicus) | key= CCN1CCN(c2nc(-c3ccc(N4CCSCC4)nc3)cc3ccccc23)CC1 [Example 150, trihydrochloride]
9.10

// lookup pKi | system=serotonin 2 receptor (Rattus norvegicus) | key= CCN1CCN(c2nc(-c3ccc(C(N)=O)cc3)cc3ccccc23)CC1
7.44

====

# TARGET_OR_TEST_SYSTEM: serotonin 1A receptor (Rattus norvegicus, UniProt P19327)
# Construct: To the receptor fraction of the hippocampus were added a test compound and 0.5 nM of [^3H]; 8-hydroxy-dipropylaminotetralin; from tissue; host or cells: rat hippocampus membrane fraction
# Sequence (P19327 whole entry): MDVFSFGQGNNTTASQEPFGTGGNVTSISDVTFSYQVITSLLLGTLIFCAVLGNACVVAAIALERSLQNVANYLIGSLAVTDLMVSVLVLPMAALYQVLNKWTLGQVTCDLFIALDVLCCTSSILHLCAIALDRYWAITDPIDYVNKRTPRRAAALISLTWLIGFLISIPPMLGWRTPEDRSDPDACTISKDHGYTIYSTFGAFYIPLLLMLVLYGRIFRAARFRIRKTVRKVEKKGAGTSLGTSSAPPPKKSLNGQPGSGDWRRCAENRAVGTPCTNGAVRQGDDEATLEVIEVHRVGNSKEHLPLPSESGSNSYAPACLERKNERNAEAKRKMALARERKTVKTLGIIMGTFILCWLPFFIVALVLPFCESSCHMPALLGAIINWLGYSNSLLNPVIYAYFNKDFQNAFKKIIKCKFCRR
# PROCEDURE_SUMMARY: Binding test on [3H] 8-hydroxy-dipropylaminotetralin, hippocampus receptor fraction
# Set-up: species or system SD rats
MEASURED_ENDPOINT: pKi
In simple prose, pKi is minus the logarithm base ten of a concentration in moles per litre.

Entry CCNC(=O)Oc1ccc(-c2cc3ccccc3c(N3CCN(CC)CC3)n2)cc1 : reported pKi = ?
7.79

====

Overview of recorded melting point for various compounds
Counter-ions that a name gives are not always drawn.

Before answering, review these 5 worked examples.
INSERT INTO measurements (compound, value) VALUES
  ('CCN1CCN(c2nc(-c3ccc(CCCO)c(OC)c3)cc3ccccc23)CC1 (as salt: hydrochloride)', '123 to 124 °C'),
  ('CCN1CCN(c2nc(-c3ccc(OCCO)c(C)c3)cc3ccccc23)CC1 (as salt: hydrochloride)', '133 to 136 °C'),
  ('CCN1CCN(c2nc(-c3cccc(OCCO)c3)cc3ccoc23)CC1 (as salt: hydrochloride) [Example 298, dihydrochloride]', '117 to 121 °C'),
  ('CCN1CCN(c2nc(-c3ccc(CC(C)O)cc3)cc3ccsc23)CC1 (stereo not drawn) (as salt: hydrochloride) [Example 436, dihydrochloride]', '66 to 67 °C'),
  ('CCN1CCN(c2nc(-c3ccc(C4=CCOCC4)cc3)cc3ccccc23)CC1 (as salt: hydrochloride)', '170 to 172 °C');

Entry CCN1CCN(c2nc(-c3ccc(/C=N/O)cc3)cc3ccccc23)CC1.Cl : reported melting point = ?
243 °C (dec.)

Entry CCN1CCN(c2nc(-c3ccc(CCCO)c(C(N)=O)c3)cc3ccccc23)CC1 : reported melting point = ?
213 to 218 °C (dec.)

====

Endpoint: Ki. System: serotonin 2 receptor (Rattus norvegicus, UniProt P14842). Items follow.
Sequence (P14842 whole entry): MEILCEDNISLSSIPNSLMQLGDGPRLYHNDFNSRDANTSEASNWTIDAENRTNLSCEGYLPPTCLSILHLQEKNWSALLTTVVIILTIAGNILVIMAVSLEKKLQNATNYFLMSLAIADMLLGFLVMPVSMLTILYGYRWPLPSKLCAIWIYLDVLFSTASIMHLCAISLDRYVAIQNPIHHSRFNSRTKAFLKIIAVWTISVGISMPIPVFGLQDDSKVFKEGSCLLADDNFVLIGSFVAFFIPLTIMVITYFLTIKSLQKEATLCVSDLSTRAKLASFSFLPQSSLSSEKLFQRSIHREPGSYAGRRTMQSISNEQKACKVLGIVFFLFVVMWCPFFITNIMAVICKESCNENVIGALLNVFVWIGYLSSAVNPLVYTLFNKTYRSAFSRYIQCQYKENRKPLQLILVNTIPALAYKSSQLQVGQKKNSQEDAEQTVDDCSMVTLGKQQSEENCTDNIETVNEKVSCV
Where a name gives a salt, the structure may show the parent alone.
A number alone suffices; assume nM.

INSERT INTO measurements (compound, unit_of_measurement, value) VALUES
  ('CCN1CCN(c2nc(-c3ccc(C4=CCOCC4)cc3)cc3ccccc23)CC1 [Example 84, Hydrochloride]', 'nM', 0.9),
  ('CCN1CCN(c2nc(-c3cccc(OCCO)c3)cc3ccoc23)CC1 [Example 298, dihydrochloride]', 'nM', 5.37),
  ('CCCC(O)c1ccc(-c2cc3ccccc3c(N3CCN(CC)CC3)n2)cc1 (centres unmarked) [Example 21, oxalate]', 'nM', 4.3),
  ('CCN1CCN(c2nc(-c3ccc(C4COCCO4)cc3)cc3ccccc23)CC1 (centres unmarked) [Example 395, Dihydrochloride]', 'nM', 4.8),
  ('CCN1CCN(c2nc(-c3ccc(OC4CCCCC4O)cc3)cc3ccccc23)CC1 (centres unmarked) [Example 426, Hydrochloride]', 'nM', 7.1),
  ('CCN1CCN(c2nc(-c3ccc(CCCCO)cc3)cc3ccccc23)CC1 [Example 23, hydrochloride]', 'nM', 6.4);

Entry CCN1CCN(c2nc(C#Cc3ncccc3OCCO)cc3ccccc23)CC1 : reported Ki = ?
107

Entry CCN1CCN(c2nc(-c3ccc(CO)c(F)c3)cc3ccccc23)CC1 [Example 28, hydrochloride] : reported Ki = ?
9.1
